Biological target: Metabotropic glutamate receptor 5 (Homo sapiens, UniProt P41594)
Sequence (P41594 whole entry): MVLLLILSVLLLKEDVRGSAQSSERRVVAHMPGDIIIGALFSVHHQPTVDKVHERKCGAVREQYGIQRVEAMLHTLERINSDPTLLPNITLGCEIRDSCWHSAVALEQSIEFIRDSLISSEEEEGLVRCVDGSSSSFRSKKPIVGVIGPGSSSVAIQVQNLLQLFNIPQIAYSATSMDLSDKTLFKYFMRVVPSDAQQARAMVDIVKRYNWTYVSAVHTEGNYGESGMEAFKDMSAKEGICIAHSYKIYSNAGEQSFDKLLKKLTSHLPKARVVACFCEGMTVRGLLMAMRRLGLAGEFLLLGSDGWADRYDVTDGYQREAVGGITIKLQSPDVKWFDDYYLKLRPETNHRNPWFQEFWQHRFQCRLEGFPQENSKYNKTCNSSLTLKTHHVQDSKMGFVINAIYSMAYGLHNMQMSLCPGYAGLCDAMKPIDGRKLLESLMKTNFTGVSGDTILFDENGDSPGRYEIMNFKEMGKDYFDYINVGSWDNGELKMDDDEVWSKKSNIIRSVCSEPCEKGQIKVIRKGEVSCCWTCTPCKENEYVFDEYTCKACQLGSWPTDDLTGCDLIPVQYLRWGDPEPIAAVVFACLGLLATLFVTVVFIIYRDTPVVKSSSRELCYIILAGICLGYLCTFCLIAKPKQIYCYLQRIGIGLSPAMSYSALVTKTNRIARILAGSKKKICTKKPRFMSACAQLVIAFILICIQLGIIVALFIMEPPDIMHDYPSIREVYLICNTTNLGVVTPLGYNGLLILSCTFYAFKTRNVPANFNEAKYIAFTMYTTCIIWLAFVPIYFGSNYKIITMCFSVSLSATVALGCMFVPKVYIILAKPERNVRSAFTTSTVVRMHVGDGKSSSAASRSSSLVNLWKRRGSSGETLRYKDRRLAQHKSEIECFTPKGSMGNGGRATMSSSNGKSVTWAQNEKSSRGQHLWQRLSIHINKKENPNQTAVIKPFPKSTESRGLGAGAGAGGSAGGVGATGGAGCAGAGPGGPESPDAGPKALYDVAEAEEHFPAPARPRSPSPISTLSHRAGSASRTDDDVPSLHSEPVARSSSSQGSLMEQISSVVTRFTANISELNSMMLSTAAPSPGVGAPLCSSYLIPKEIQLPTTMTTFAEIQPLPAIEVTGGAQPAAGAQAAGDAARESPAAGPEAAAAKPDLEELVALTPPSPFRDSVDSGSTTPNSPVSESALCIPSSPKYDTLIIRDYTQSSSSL
Test: Antagonist activity at mGluR5 by FLIPR
Format: functional
measured quantity: IC50 (nM)

CN1CC(=O)N=C1NC(=O)Nc1cccc(Cl)c1 [FENOBAM ANHYDROUS] | 38
Cc1cccc(C#Cc2ccncc2)n1 | 213
Cc1cccc(C#Cc2ccccc2Cl)n1 | 15
Cc1cccc(C#Cc2ccccn2)n1 | 400
CN1CC(=O)N/C1=N\C(=O)Nc1ccccc1Cl | 6800

[I] Cc1cccc(C#Cc2ccc(Cl)cc2)n1
[II] CN1CC(=O)N/C1=N\C(=O)Nc1ccccc1
[III] Cc1cccc(C#Cc2cccnc2)n1
[IV] CN1CC(=O)N/C1=N\C(=O)Nc1csc(Cl)c1
// sort entries: IC50, high to low Form entry: labels listed in requested order.
II, I, IV, III

[I] CN1CC(=O)N/C1=N\C(=O)Nc1ccsc1
[II] CN1CC(=O)N/C1=N\C(=O)Nc1ccccn1
Which of the two gives a bigger number for IC50: I or II ? Your choice should be expressed through its label.
I
(I: 4020 nM, II: 1100 nM)
